Hey, just so you know, these numbers are from PubChem BioAssay AID602191.

target: Scavenger receptor class B member 1 (Mus musculus); assay: enhancers of DiI-HDL lipid transfer via SR-BI – cell-based, ldlA[mSR-BI] CHO, DiI fluorescence, cherry-pick, dose response (AID 602191); conditions: ldlA[mSR-BI] CHO cells, 3 h, at 35 µM (top of the series);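 also: cell fluorescence from internalized DiI-labeled HDL after washing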;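 as to activation (HDL uptake increase): 0% = median of DMSO wells and 100% = twice the DMSO signal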
Attribute: activation (HDL uptake increase)
Write the answer as a number in %, unit excluded.

Below are worked cases with known answers.
{"Compound": "CCOc1cc(N2CCOCC2)c(OCC)cc1NC(=O)CSc1cccc[n+]1[O-]", "Study Target": "Scavenger receptor class B member 1 (Mus musculus)", "activation (HDL uptake increase) (%)": -6.79}
{"Compound": "O=C(COC(=O)/C=C/c1cccc(Cl)c1)NCCc1ccc(Cl)cc1Cl", "Study Target": "Scavenger receptor class B member 1 (Mus musculus)", "activation (HDL uptake increase) (%)": -1.95}
{"Compound": "Cn1c(SCC(=O)N2CCCCCC2)nc2c(c1=O)SCC2", "Study Target": "Scavenger receptor class B member 1 (Mus musculus)", "activation (HDL uptake increase) (%)": -10.7}
{"Compound": "Cc1csc(SCC(=O)Nc2cc(C(N)=O)cc(C(N)=O)c2)n1", "Study Target": "Scavenger receptor class B member 1 (Mus musculus)", "activation (HDL uptake increase) (%)": -3.94}

Find the measured activation (HDL uptake increase): item COc1ccc(-n2nc(C(=O)N3CCN(Cc4ccc5c(c4)OCO5)CC3)c3ccccc3c2=O)cc1 , target or system Scavenger receptor class B member 1 (Mus musculus).
-5.05

What about this compound? Cc1noc(/C=C/N(C)C)c1S(=O)(=O)N1CCCC(C(=O)NCc2ccco2)C1 (stereo not given)
-1.39

One more compound: O=C(NCCCCc1ccccc1)C1CC(c2cccc(F)c2)=NO1 (stereo not given)
-4.48

How about this compound: Cc1c(C(=O)N2CCC(C(N)=O)CC2)sc(N)c1C#N
-8.06

Next entry: COc1ccc(S(=O)(=O)N2CCOCC2)cc1NC(=O)COC(=O)C1CC2CCCC(C1)C2=O (stereo not given)
-6.79

Now try N#Cc1ccc(OCCOCCNC2CCCC2)cc1 .
13.4

----------
molecular target: Scavenger receptor class B member 1 (Mus musculus); test: enhancers of DiI-HDL lipid transfer via SR-BI – cell-based, ldlA[mSR-BI] CHO, DiI fluorescence, cherry-pick, dose response (AID 602191); settings: ldlA[mSR-BI] CHO cells, DiI-HDL uptake fluorescence, 3 h;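 also: cell fluorescence from internalized DiI-labeled HDL after washing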
Active and inactive are the calls of the source.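 Rule for the calls: active = fitted curve reaches 40% activation at a concentration no higher than the top valid tested dose; inconclusive = flat fit between 30% and 70% activation, or poor fit; inactive = uptake decrease, flat fit within 30% of zero, the rest.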
Parameter call: string, one of 1.0 (active), 0.0 (inactive)

{"Compound": "COc1ccc(OC)c(S(=O)(=O)NCCCN2CCCC2=O)c1", "Category": 0.0}
{"Compound": "NCCCC[C@H]1CNC(=O)C(=O)N1CCc1cccc(F)c1", "Category": 0.0}
{"Compound": "CCN1CCN(c2ccc(S(=O)(=O)N3CCOCC3)cc2NC(=O)C2CCC(C(C)(C)C)CC2)CC1 (centres undefined)", "Category": 0.0}

Check the results log: what was the call for O=C(Cc1ccc(NC(=O)C2CCN(C(=O)C3CC3)CC2)cc1)Nc1ccc(C(=O)N2CCOCC2)cc1 ?
0.0

And then CCOC(=O)c1ccc(NC(=O)c2nc[nH]c2C(=O)NCCCCNC(=O)c2[nH]cnc2C(=O)Nc2ccc(C(=O)OCC)cc2)cc1 , what is it?
1.0

Try this compound too: COCCNC(=O)c1onc(CSc2cccc(C)c2)c1C(=O)O
0.0

Same for O=C(C[C@H]1C[C@H](C(=O)N2CCCCC2)[C@@]2(CCc3ccccc3)c3[nH]c4ccc(Cl)cc4c3CCN2C1=O)NCCc1ccccn1
0.0

Now this one: FC(F)(F)c1ccc(C2[C@H]3CN(Cc4cccnc4)[C@H](c4ccccc4)C34CC2(c2cccnc2)C4)cc1 (some centres undefined)
0.0

And the next one, COc1ccccc1OCCc1nnc(N)s1 ?
0.0

----------
We begin with a simple list: items and their reported activation (HDL uptake increase).
molecular target: UniProt Q61009; assay: enhancers of DiI-HDL lipid transfer via SR-BI – cell-based, ldlA[mSR-BI] CHO, DiI fluorescence, cherry-pick, dose response (AID 602191); settings: ldlA[mSR-BI] CHO cells, 3 h, at 35 µM (top of the series);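 also: cell fluorescence from internalized DiI-labeled HDL after washing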;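 as to activation (HDL uptake increase): 0% = median of DMSO wells and 100% = twice the DMSO signal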
Number only, in %; omit the unit.

The cases that follow already have their activation (HDL uptake increase) on record.
{"Compound": "COCCN(Cc1nnc(-c2cccs2)o1)C(=O)c1cccc(S(=O)(=O)N2CCOCC2)c1", "Study Target": "UniProt Q61009", "activation (HDL uptake increase) / %": -7.49}
{"Compound": "C[C@H](CO)N1C[C@H](C)[C@H](CN(C)C)Oc2ccc(NS(=O)(=O)c3ccc(F)cc3)cc2CC1=O", "Study Target": "UniProt Q61009", "activation (HDL uptake increase) / %": -7.7}
{"Compound": "O=C1NCCCC1C(=O)NCCNC(=O)C(F)(F)F (stereo not given)", "Study Target": "UniProt Q61009", "activation (HDL uptake increase) / %": -6.55}
{"Compound": "CC(Sc1ccc(S(=O)(=O)N(C)C)cn1)C(=O)NC1CCCC1 (stereo not given)", "Study Target": "UniProt Q61009", "activation (HDL uptake increase) / %": -1.21}
{"Compound": "Cc1nc(CCNC(=O)Cc2ccc(Cl)cc2)cs1", "Study Target": "UniProt Q61009", "activation (HDL uptake increase) / %": -4.62}

Please provide the recorded activation (HDL uptake increase) for CC1CCN(S(=O)(=O)c2ccc3c(c2)c(=O)c(C(=O)N2CCCCC2)cn3C)CC1 , tested on UniProt Q61009.
-8.34

Param item: COc1ccc(N2CCN(c3oc(-c4ccco4)nc3C#N)CC2)cc1
1.24

Item: O=C1CCC(C(=O)N2CCCCCCC2)CN1Cc1cccc(C(F)(F)F)c1 (stereo not given)
-0.452

Do the same for O=C(COC(=O)C1CCN(/C=C/C(=O)C(F)(F)F)CC1)Nc1cccc(F)c1 please
-7.38

Follow-up item: O=C(NNC(=O)C1CC(c2cccnc2)=NO1)Nc1cccc(F)c1 (stereo not given)
-5.33

----------
target: Scavenger receptor class B member 1 (Mus musculus); experiment: enhancers of DiI-HDL lipid transfer via SR-BI – cell-based, ldlA[mSR-BI] CHO, DiI fluorescence, cherry-pick, dose response (AID 602191); settings: ldlA[mSR-BI] CHO cells, DiI-HDL uptake fluorescence, 3 h;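 also: cell fluorescence from internalized DiI-labeled HDL after washing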;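 as to AC40: potency of activators raising HDL uptake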
The source made the active and inactive calls.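 How the source made its calls: active means fitted curve reaches 40% activation at a concentration no higher than the top valid tested dose; inconclusive means flat fit between 30% and 70% activation, or poor fit; inactive means uptake decrease, flat fit within 30% of zero, the rest.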
Reported Property: AC40

{"Compound": "COc1ccc2sc(-c3ccccc3OC)c(-c3ccc(OCCN4CCCC4)cc3)c2c1", "Assay Result": "> 35 µM (inactive)"}
{"Compound": "CCOc1ccc(CN2CCNC(=O)C2CC(=O)NCC2CCOCC2)cc1 (centres undefined)", "Assay Result": "> 35 µM (inactive)"}
{"Compound": "CN(C)C(=O)CCc1ccc2c3c([nH]c2c1)[C@]1(CCC2CCCC2)[C@@H](C(=O)N2CCOCC2)C[C@H](CC(=O)NCC24CC5CC(CC(C5)C2)C4)C(=O)N1CC3", "Assay Result": "> 35 µM (inactive)"}

Please look at the following compound next.
Looking for the measured AC40 of O=C(CC1NC(=O)NC1=O)Nc1ccc(Cl)cc1 (centres undefined) , can you help?
> 35 µM (inactive)

----------
target: Scavenger receptor class B member 1 (Mus musculus); assay: enhancers of DiI-HDL lipid transfer via SR-BI – cell-based, ldlA[mSR-BI] CHO, DiI fluorescence, cherry-pick, dose response (AID 602191); conditions: ldlA[mSR-BI] CHO cells, DiI-HDL uptake fluorescence, 3 h;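 also: cell fluorescence from internalized DiI-labeled HDL after washing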
Activity calls are given as the source filed them.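 The calls were made as follows: active = fitted curve reaches 40% activation at a concentration no higher than the top valid tested dose; inconclusive = flat fit between 30% and 70% activation, or poor fit; inactive = uptake decrease, flat fit within 30% of zero, the rest.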
// allowed return values: Yes for active, No for inactive

{"Compound": "O=C(C[C@H]1C[C@H](C(=O)N2CCCCC2)[C@@]2(CCc3ccccc3)c3[nH]c4ccc(Cl)cc4c3CCN2C1=O)NCc1cccc(C(F)(F)F)c1", "Category": "No"}
{"Compound": "CC(C)NC(=O)C1(O)c2ccccc2NC(=O)N1c1ccc(Cl)c(Cl)c1 (centres undefined)", "Category": "No"}
{"Compound": "Cc1ccc(S(=O)(=O)Nc2ccc3c(c2)C(=O)N([C@H](C)CO)C[C@H](C)[C@@H](CN(C)Cc2ccc(-c4ccccc4)cc2)O3)cc1", "Category": "Yes"}

Record request — test call for COc1ccc(CC(=O)N(C)Cc2ccc(C(C)(C)C)cc2)cc1S(=O)(=O)N1CCOCC1
No

----------
target: Scavenger receptor class B member 1 (Mus musculus) (UniProt Q61009); assay: enhancers of DiI-HDL lipid transfer via SR-BI – cell-based, ldlA[mSR-BI] CHO, DiI fluorescence, cherry-pick, dose response (AID 602191); conditions: ldlA[mSR-BI] CHO cells, 3 h, at 35 µM (top of the series);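 also: cell fluorescence from internalized DiI-labeled HDL after washing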;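 as to activation (HDL uptake increase): 0% = median of DMSO wells and 100% = twice the DMSO signal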
Sequence (Q61009 whole entry, looked up): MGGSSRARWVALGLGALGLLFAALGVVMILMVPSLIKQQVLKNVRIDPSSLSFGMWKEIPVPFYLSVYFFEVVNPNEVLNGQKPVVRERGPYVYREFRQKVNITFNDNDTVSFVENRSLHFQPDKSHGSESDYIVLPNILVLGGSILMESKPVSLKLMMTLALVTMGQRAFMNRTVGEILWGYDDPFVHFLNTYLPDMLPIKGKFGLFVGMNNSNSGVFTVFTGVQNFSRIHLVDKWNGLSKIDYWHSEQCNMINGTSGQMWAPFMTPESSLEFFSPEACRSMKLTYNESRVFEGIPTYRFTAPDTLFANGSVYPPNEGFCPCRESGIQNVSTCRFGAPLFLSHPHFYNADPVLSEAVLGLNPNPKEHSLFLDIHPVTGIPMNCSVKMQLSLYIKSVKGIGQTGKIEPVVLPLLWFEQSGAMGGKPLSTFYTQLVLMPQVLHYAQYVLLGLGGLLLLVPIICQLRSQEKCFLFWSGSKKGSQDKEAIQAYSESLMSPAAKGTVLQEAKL
Reported Property: activation (HDL uptake increase) (%)
Respond with the bare value in %.

Sample answers from the record:
{"Molecule": "COc1ccc(NC(=O)CN(C)C(=O)CCC2CCCC2)cc1", "Units": "%", "activation (HDL uptake increase)": -6.8}
{"Molecule": "O=C1CCCCN1CCC(=O)N1CCCC(Nc2ccccc2)C1 (stereo not given)", "Units": "%", "activation (HDL uptake increase)": 4.76}
{"Molecule": "COc1ccc(CCN2CC(C(=O)NCc3cnn(C(C)C)c3)CCC2=O)cc1 (stereo not given)", "Units": "%", "activation (HDL uptake increase)": -1.83}
{"Molecule": "COc1ccc(N2C(=O)CCC(C(=O)N3CCOCC3)C2c2ccc(F)cc2)cc1 (stereo not given)", "Units": "%", "activation (HDL uptake increase)": 5.04}
{"Molecule": "CC(C)C(NC(=O)c1ccccc1F)C(=O)NCc1ccccc1 (stereo not given)", "Units": "%", "activation (HDL uptake increase)": 4.3}
{"Molecule": "O=C(O)CN(Cc1ccco1)S(=O)(=O)c1ccc(F)cc1", "Units": "%", "activation (HDL uptake increase)": -1.5}
{"Molecule": "COCCNC(=O)c1onc(CSc2cccc(OC)c2)c1C(=O)O", "Units": "%", "activation (HDL uptake increase)": 11.9}
{"Molecule": "Cc1ccc(S(=O)(=O)N2CCOCC2)cc1C(=O)NCc1ccccc1CN1CCCC1", "Units": "%", "activation (HDL uptake increase)": -7.63}
{"Molecule": "O=C1NC[C@H](Cc2ccccc2)N(C[C@H]2CCCN2C[C@H](Cc2ccccc2)N2C[C@H](Cc3ccccc3)N(CC3CCCCC3)C(=O)C2=O)C1=O", "Units": "%", "activation (HDL uptake increase)": 11.2}

Dear colleague, I am looking for the recorded activation (HDL uptake increase) of the following molecule: COCCNC(=O)C1(C)C=CC2(CCCCC2)N1C(=O)c1ccccc1 (stereo not given)
3.23
